Cited source for all entries: patent US20260327264A1

Please provide measured pIC50 for the entries that follow.
System: IL-23 mediated STAT3 signalling (DB cells)
Test: Functional inhibition of IL-23 mediated STAT3 signalling (phospho-STAT3 Tyr705) in DB cells
Format: cell-based, human
Settings: Table 3-2, EC80 of hIL-23, read-out: hIL-23 (pSTAT3) antagonist IC50
*1 amine or outer side, *2 acyl side, *3 side chain or, on linkers, in order; H or OH if unused. Where a SMILES comes first, the peptide text is derived from it. Bridges are numbered along the chain shown (N, C = ends). [ ]: non-standard residue; d: D form. 2Nal = N[C@@H](Cc1ccc2ccccc2c1)C(=O)O; AEF = NCCOc1ccc(C[C@H](N)C(=O)O)cc1; X1 = O=C(Cc1ccc(CN[*:1])cc1)[*:2]; 3Pal = N[C@@H](Cc1cccnc1)C(=O)O; αMeL = CC(C)C[C@](C)(N)C(=O)O; Dab = NCC[C@H](N)C(=O)O
Worth noting: pIC50 values are minus log10 of concentrations stated in mol/L.

Sure, the documented pIC50 for CC(C)C[C@]1(C)NC(=O)[C@H](Cc2ccc3ccccc3c2)NC(=O)[C@H](Cc2ccc(OCCN)cc2)NC(=O)[C@@H]2CCNC(=O)CC[C@H](NC(=O)[C@H](CO)NC(=O)Cc3ccc(cc3)CNC(=O)CC[C@@H](C(=O)NC[C@@H](N[C@@H](Cc3cccnc3)C(N)=O)C(F)(F)F)NC1=O)C(=O)N[C@@H](Cc1c[nH]c3ccccc13)C(=O)N[C@@H](CCC(N)=O)C(=O)N2 [Compound 16] is 8.85

Sure, the documented pIC50 for CC(C)C[C@]1(C)NC(=O)[C@H](Cc2ccc3ccccc3c2)NC(=O)[C@H](Cc2ccc(OCCN)cc2)NC(=O)[C@@H]2CCNC(=O)CC[C@H](NC(=O)[C@H](CO)NC(=O)Cc3ccc(cc3)CNC(=O)CC[C@@H](C(=O)N[C@@H](CCN)C(=O)N[C@@H](Cc3c[nH]cn3)C(=O)N[C@@H](Cc3cccnc3)C(N)=O)NC1=O)C(=O)N[C@@H](Cc1c[nH]c3ccccc13)C(=O)N[C@@H](CCC(N)=O)C(=O)N2 [Compound 12] ([X1]SEWQ[Dab][AEF][2Nal][αMeL]E[Dab]H[3Pal]-NH2; lactam 3-6, N-10) is 8.46

Sure, the documented pIC50 for CC(C)C[C@]1(C)NC(=O)[C@H](Cc2ccc3ccccc3c2)NC(=O)[C@H](Cc2ccc(OCCN)cc2)NC(=O)[C@@H]2CSCC(=O)CSC[C@H](NC(=O)[C@H](CO)NC(=O)Cc3ccc(cc3)CNC(=O)CC[C@@H](C(=O)N[C@@H](CO)C(N)=O)NC1=O)C(=O)N[C@@H](Cc1c[nH]c3ccccc13)C(=O)N[C@@H](CCC(N)=O)C(=O)N2 [Ref 81, reference compound] is 7.68
